# Protocol: label from the status in PepcDB records

Sequence Text	protein production
AWQAAVASNEPFGEAQLAQRIRRYLPEQGQLFVGNSLVVRLIDALAQLPAGYPVYSNRGASGIDGLIATAAGVQRASARPTLAIVGDLSALYDLNSLALLRQASAPLVLIVVNNNGGQIFSMLPTPQDERRQFYLMPQDVDFSHAAVMFGLAYHRPDDWPSLDEALAGAWRRAGATVIELAVNETDGAQTLQQLLAQVSRL	failed
MNKQSAAVLMVMGSALSLQFGAAIGTQLFPLNGPWAVTSLRLFIAGLIMCLVIRPRLRSWTKKQWIAVLLLGLSLGGMNSLFYASIELIPLGTAVTIEFLGPLIFSAVLARTLKNGLCVALAFLGMALLGIDSLSGETLDPLGVIFAAVAGIFWVCYILASKKIGQLIPGTSGLAVALIIGAVAVFPLGATHMGPIFQTPTLLILALGTALLGSLIPYSLELSALRRLPAPIFSILLSLEPAFAAAVGWILLDQTPTALKWAAIILVIAASIGVTWEPKKMLVDAPLHSKCNAKRRVHTPS	failed

* * *

# Protocol: label from the status in PepcDB records

Sequence Text	protein production
MSSNNVTTDVVSVDEQAFENAGGQAVDEDGFPVVDETPAFEAEVEQETQAKVDANHPDGIADTSEDRIHGVTLEQEERIRAREAELERISAQAELGTQDGREQRTRAVAAEGSTERRREFQQRAASVEPMADPERDDPRAELSQDELATVNTEADRLATRLDGWSRAAISRRLAEAIVDGRDLTSAVVRVFEELQTAPGGTVPIDALEDIDRKEVSVEGRVTQLWEPSSPSIAQVGLIEDESGRTKLTSWKASDAPWIEEGERVRIHGAAKNWYNGRVSVAVTGWSTLHFPERGRWWDE	failed
LPLTDALRKALAEAPKHTANIARKRHILFIGKLMRDQDQEAILVLLDQLDASTRQYNERFHNLERWRDRLIAGDDADLEKFVIEYPDADRQQLRSLIRQAQHEVARNKP	failed

* * *

# Protocol: label from the status in PepcDB records
Test Readout: protein production

Consider the worked cases shown below.
Sequence Text	Test Readout	Result
AGKPDWDWQPAPKNEALIAAVSAAAQEGLNAAYQIREKQARTTKLREVYAAVQAAMAEQAAQAGQPAPDSVGVDNILFDLEARIVRSQILNGEPRIDGRDTRTVRP	protein production	not failed
MSELIKHSSNFLAAISPDNDCSITATNDFEAMMSWLNGYKKKPINTSRNYAREVKRYLIWLSCQGLTLAQVKIEDVYEYFNLLERPTTEWIIPDKKTDKIYPTQLIKYGGLSNRSINYTHTVLGLFYSFLQDAGYLTKNPINLEHHHHHH	protein production	failed
MKNFSRTGKILFSYGAIQMFWGLVMLNVNVFEHTSETIKYVILITGIVFCIISNFFKEHKSHTIT	protein production	failed
MRVPLDEIDKKIIKILQNDGKAPLREISKITGLAESTIHERIRKLRESGVIKKFTAIIDPEALGYSMLAFILVKVKAGKYSEVASNLAKYPEIVEVYETTGDYDMVVKIRTKNSEELNNFLDLIGSIPGVEGTHTMIVLKTHKETTELPIK	protein production	not failed

Query: I am curious: what protein production value has been reported for `DSASQAEQFLKLVHADKLTVPVYAQVQQMLAQRFAQAKAPESKKAVLERYQAKANAELDRAIGWDKIKPELIKLYTTNFTESELKDLNAFYQSPLGKKVLEKMPRLTAESAQLTQAKLQGAVEPVNKLMADMDKELGVAAPAQKKK` ?
Reply: not failed

* * *

# Protocol: label from the status in PepcDB records
Test Readout: protein production

Sequence Text	Result
MLISLIVPIYNVEGFLPRCLDSIIKQEYQNLEIVLVNDGSTDQSGLICDQYAEKDERFIVFHKENGGVSSARNVGLNKANGNYIGFVDPDDWIEPNMINKLYELIIQHKADIAMCGYVKEDINGLLISRPVELSTKILNKEDTLNSILNPNDFRGFLCNKLFSVDLFRKKNLYLDEDIHFCEDLLFCCQAILESKQIVYDSTPYYHYIIHNNNASKSNFSFKKLTALNSLDNIINLLNDQKGIELEQYKNYYMHLNISLLMNGIHEDKIRRQDKERLKKNLYKFKINDLTSKFVKFSCVLARLNLNLYYFIWKNAKPSNLEHHHHHH	failed
MIQLVIRLGLLALLIFWTLYLIRPFVTILVWALVLAVAFNPIFLVLAKILGGRAKLAAGLLTAINLAIVIGPAAWLGLGAVDGIRDFAGELAAGDLVIPSPPAAIKTWPLIGTPLYEFWDQASTNLRSVVQRIAPYLKPFAGTLLGIAGDAGVGTIKFLLSVVVAGCLFPYGPQLVAAGRSFLSRIVPEQSEHFLDLAGATIRAVAQGVIGIAVVQALLAGIGFKLAGIPIAGLLALLVLLLSIVQIGGAIIMLPVMIWIWTDKDVTVAVLLTLFLGIVSILDNILKPLVMGRGLTTPALVILIGVIGGTLGHGIVGLFIGPIVLSVAWELTVAWIRTDRASAASQATIDR	failed

* * *

# Protocol: label from the status in PepcDB records
Test Readout: protein production

Consider the worked cases shown below.
Sequence Text	Test Readout	Result
MPQSAPPNTRQAVLWNDVSGKAWVEMQPILDEILAPFERLVVDAGYPREGGNVLDIGCGAGATTLAMARRVGNDGNCVGLDISQPLVALATERTKLGEVANASFEVGDAQTYAFESGHFDAAISRFGVMFFDDPMAAFTNIRKAVRRRGKLAFVAWRSPLENDFMTTAVRAAAPFLPPAPAPDPDAPGQFAFADGAKVRRILEASGWASIEVEQADVPCRIAQRDLMAYATRLGPLGAALREVDRATAERITTVLPAAFAPFVDDGEARFNAACWLVTALA	protein production	failed
MDHGVVLLSDDQGLQWRQASSVPLSTPLTGVSFVDAKRGWAVGHWGAILITTDGGESWQVQRLATEEDRPLFAVHFFNARQGVAVGLWSLVLTTEDGGQTWSEQPLQAPPGAKRADLNLMGLFADSRGTLYATAEHGQVLHSEDQGKNWRYLDTGYEGTLWAGAVLADGRLLLGGQRGTLLQGSADGKGFHRVPTQSKGSVTCVAVAGSRVLAVGLDGLSVQSSDGGHSFQETQTADGLSLTAALFNAEGVPVLFSRRGVMPYQELEHHHHHH	protein production	failed
MTTPFVLAVPSKGRLQENAEAFFARAGLTLSKLGGARDYRGTIAGLDNVEIAYLSASEIAAQLARGTVHLGITGEDLIRESIADADKKVALIEGLGFGGANVVVAVPQAWIDVRTMADLDDVTTGFRAQHNRRMRVATKYINLTRNFFAAHGVVDYRIVESAGATEGAPAVGTAEMIVDITSSGATLVANGLKVLDDGVILRSQANLVASRAADWSADALETARVILDRIAARARANKYKEVRTRFAGCDASLLTEAHNRFGVVSPFGGPTSSGMITLHCPPAQLYALGSFLRDHGADTVSIASLDYVLDRENPLFAKLESFLRQ	protein production	failed
MPYDTSNNTLIVSTRNHQDDDETAIVDDLQRLVNYQISDGGNINHQYFQIAQQFHHTQQQNANANALQLVAAATTATTLMPQTQAALAMNMIPAGTIPNNALWDMWNPIVPDGNRDHYTNIPFK	protein production	failed

Query: State the recorded protein production for this entry: `MEFQSTVVATVDCQKQVRSWRLLRSFIQLLIPTCNCTLVQELEQDNTNLRGKKLYNDIKSRTSSFRSSSSLSSSTVTGTIFGYRKGKINFCIQTPRKSTNLDLLLELAVPTTVLAREMREGALRIVLERNNEKQDDDSFLSKPFWNMYCNGKRVGYARKRSPSQDDMTALTALSKVVVGAGVVTGKELGRFDDELMYLRASFRRVNGSKESESFHLIDPAGNIGQELSIFIVPSSV`
Reply: failed

* * *

# Protocol: label from the status in PepcDB records

Sequence Text	protein production
MYEGEIAIGPVHSTMLEPHRLRLFIEDEIVKDAELTIGVNHRGVERLMEGLPVEKACILCEKICGICSHIHLWSAARVAEIGCNIEVPERANHIRIIVEELERLHSHTLLFGHAFEILGHETMSMRCFMLREPIMQVFFEISGSRVHYSCPIIGGIRPRCNISETQISHIHDKISQYEEGLTKFIERMLNDPMIISRVKDVGVMDRKTAAKFHAVGPTARGSNVKSDMRKWGWVPEYDPYDFDEILFDSGDVFARLAVRFYECLESVKIIRQALDALKDTSDKRIYNPNYELNEFKPINCYTEAQRGEQYYSYGLDDEGLVRQAKIRTPTATNLGAMEDIVKGYHVSDAELIIASCDPCFTCTDRLMVLKEPFKK	failed
MIDEKFLIESNELVESSKIVMVGTNGENGYPNIKAMMRLKHDGLKKFWLSTNTSTRMVERLKKNNKICLYFVDDNKFAGLMLVGTIEILHDRASKEMLWTDGCEIYYPLGIDDPDYTALCFTAEWGNYYRHLKNITFKIDEIYNY	not failed
GRARVKVEGVFYNPRMRFCRDLDMLVFATMDSKEYFDALSASGIRGIRAALEAGKKAVFNDVSPKAVKVIEENLRENGVSGEVINGDAAAVMRQRAFEHIDIDPFGSPAPFMDSACFSAKRYLSVTATDTAALCGSATNSGLKKYGAFAVKTDVYHEVGLRMLIGFVVREATKYEKALFPLISWVREHYYRVHFKIKKSTAMSAKVYEKMGYLAYCSTCLRKKVLGMGEGAERCECGGKFSLIGPIWLGELKQRDFAEKVAEKAEGKLRAFLEKILAEIDAPTAYSLPALAKIHSLTLPPTDVVVEELKKLGYEASRTHYCGFCVKTDADRDVVVKILRSRK	failed
MSQSSDASEKEKPKEKKSQEELEKELDKELKKGGEPKTKKDDQIHKIGETFKAGHTNFTVNKVDRVQKGEYMNVGGAVNEETKTIKDDEERLIIEVTMENIGEDSISYNFIGFDLRDKNDQSVRPVFSIEEKGRILMGGTLVSGKKVTGVLSYVIPKGEQKHYTLVYNPFLADTNSSNTEERVKDDIDYLVKLDLEHHHHHH	not failed
